method: Stability in rat liver microsomes assessed as unchanged drug level at 1 uM by LC-MS/MS analysis
Type: ADME, Microsome
details: time 60 min, read-out: Stability

[
  {
    "smiles_record": "CC[C@H]1OC(=O)[C@H](C)C(=O)[C@H](C)[C@@H](O[C@@H]2O[C@H](C)C[C@H](N(C)C)[C@H]2O)[C@](C)(OC)C[C@@H](C)C(=O)[C@H](C)[C@H]2N(CCCCn3cnc(-c4cccnc4)c3)C(=O)O[C@]12C",
    "remaining at 1 h, 1 µM (%)": 93.2
  },
  {
    "smiles_record": "CC[C@H]1OC(=O)[C@H](C)C(=O)[C@H](C)[C@@H](O[C@@H]2O[C@H](C)C[C@H](N(C)C)[C@H]2O)[C@](C)(OC)C[C@@H](C)C(=O)[C@H](C)[C@H]2N(CCCN3CCN(c4cc5c(cc4F)c(=O)c(C(=O)O)cn5C4CC4)CC3)C(=O)O[C@]12C",
    "remaining at 1 h, 1 µM (%)": 95.1
  },
  {
    "smiles_record": "CCOc1ccc2ccc(=O)oc2c1",
    "remaining at 1 h, 1 µM (%)": 0.695
  },
  {
    "smiles_record": "CC[C@H]1OC(=O)[C@H](C)C(=O)[C@H](C)[C@@H](O[C@@H]2O[C@H](C)C[C@H](N(C)C)[C@H]2O)[C@](C)(OC)C[C@@H](C)C(=O)[C@H](C)[C@H]2N(CCCCc3ccc4c(=O)c(C(=O)O)cn(C5CC5)c4c3)C(=O)O[C@]12C",
    "remaining at 1 h, 1 µM (%)": 100
  }
]

====

Test system: Streptococcus pneumoniae
method: Antibacterial activity against Streptococcus pneumoniae PU09 by microbroth dilution method
Format: functional

[
  {
    "smiles_record": "CC[C@H]1OC(=O)[C@H](C)C(=O)[C@H](C)[C@@H](O[C@@H]2O[C@H](C)C[C@H](N(C)C)[C@H]2O)[C@](C)(OC)C[C@@H](C)C(=O)[C@H](C)[C@H]2N(CCCC#Cc3ccc4c(=O)c(C(=O)O)cn(C5CC5)c4c3)C(=O)O[C@]12C",
    "MIC / µg/mL": 1
  },
  {
    "smiles_record": "CC[C@H]1OC(=O)[C@H](C)C(=O)[C@H](C)[C@@H](O[C@@H]2O[C@H](C)C[C@H](N(C)C)[C@H]2O)[C@](C)(OC)C[C@@H](C)C(=O)[C@H](C)[C@H]2N(CCCCCC#Cc3ccc4c(=O)c(C(=O)O)cn(C5CC5)c4c3)C(=O)O[C@]12C",
    "MIC / µg/mL": 1
  },
  {
    "smiles_record": "CC[C@H]1OC(=O)[C@H](C)C(=O)[C@H](C)[C@@H](O[C@@H]2O[C@H](C)C[C@H](N(C)C)[C@H]2O)[C@](C)(OC)C[C@@H](C)C(=O)[C@H](C)[C@H]2N(CCCCCCC#Cc3ccc4c(=O)c(C(=O)O)cn(C5CC5)c4c3)C(=O)O[C@]12C",
    "MIC / µg/mL": 1
  }
]

====

# log10(MIC) per entry
Test system: Staphylococcus aureus
method: Antibacterial activity against Staphylococcus aureus 15B196 by microbroth dilution method
Type: functional
observable: log10(MIC) (log10 of the value in µg/mL)

[
  {
    "smiles_record": "O=C(O)c1cn(C2CC2)c2cc(N3CCNCC3)c(F)cc2c1=O",
    "obs_value": 0.00
  },
  {
    "smiles_record": "CC[C@H]1OC(=O)[C@H](C)C(=O)[C@H](C)[C@@H](O[C@@H]2O[C@H](C)C[C@H](N(C)C)[C@H]2O)[C@](C)(OC)C[C@@H](C)C(=O)[C@H](C)[C@H]2N(CCC#Cc3ccc4c(=O)c(C(N)=O)cn(C5CC5)c4c3)C(=O)O[C@]12C",
    "obs_value": 2.71
  },
  {
    "smiles_record": "CC[C@H]1OC(=O)[C@H](C)C(=O)[C@H](C)[C@@H](O[C@@H]2O[C@H](C)C[C@H](N(C)C)[C@H]2O)[C@](C)(OC)C[C@@H](C)C(=O)[C@H](C)[C@H]2N(CCC#Cc3ccc4c(=O)c(C(=O)O)cn(C5CC5)c4c3)C(=O)O[C@]12C",
    "obs_value": 1.20
  },
  {
    "smiles_record": "CC[C@H]1OC(=O)[C@H](C)C(=O)[C@H](C)[C@@H](O[C@@H]2O[C@H](C)C[C@H](N(C)C)[C@H]2O)[C@](C)(OC)C[C@@H](C)C(=O)[C@H](C)[C@H]2N(CCCCC#Cc3ccc4c(c3)c(=O)c(C(=O)O)cn4C3CC3)C(=O)O[C@]12C",
    "obs_value": 2.41
  },
  {
    "smiles_record": "CC[C@H]1OC(=O)[C@H](C)C(=O)[C@H](C)[C@@H](O[C@@H]2O[C@H](C)C[C@H](N(C)C)[C@H]2O)[C@](C)(OC)C[C@@H](C)C(=O)[C@H](C)[C@H]2N(CCCC#Cc3ccc4c(c3)c(=O)c(C(=O)O)cn4C3CC3)C(=O)O[C@]12C",
    "obs_value": 2.41
  },
  {
    "smiles_record": "CC[C@H]1OC(=O)[C@H](C)C(=O)[C@H](C)[C@@H](O[C@@H]2O[C@H](C)C[C@H](N(C)C)[C@H]2O)[C@](C)(OC)C[C@@H](C)C(=O)[C@H](C)[C@H]2N(CCCC#Cc3ccc4c(=O)c(C(N)=O)cn(C5CC5)c4c3)C(=O)O[C@]12C",
    "obs_value": 2.71
  },
  {
    "smiles_record": "CC[C@H]1OC(=O)[C@H](C)[C@@H](O[C@H]2C[C@@](C)(OC)[C@@H](O)[C@H](C)O2)[C@H](C)[C@@H](O[C@@H]2O[C@H](C)C[C@H](N(C)C)[C@H]2O)[C@](C)(OC)C[C@@H](C)C(=O)[C@H](C)[C@@H](O)[C@]1(C)O",
    "obs_value": 2.71
  },
  {
    "smiles_record": "CC[C@H]1OC(=O)[C@H](C)C(=O)[C@H](C)[C@@H](O[C@@H]2O[C@H](C)C[C@H](N(C)C)[C@H]2O)[C@](C)(OC)C[C@@H](C)C(=O)[C@H](C)[C@H]2N(CCCCCC#Cc3ccc4c(c3)c(=O)c(C(=O)O)cn4C3CC3)C(=O)O[C@]12C",
    "obs_value": 2.11
  },
  {
    "smiles_record": "CC[C@H]1OC(=O)[C@H](C)C(=O)[C@H](C)[C@@H](O[C@@H]2O[C@H](C)C[C@H](N(C)C)[C@H]2O)[C@](C)(OC)C[C@@H](C)C(=O)[C@H](C)[C@H]2N(CCC#Cc3ccc4c(c3)c(=O)c(C(=O)O)cn4C3CC3)C(=O)O[C@]12C",
    "obs_value": 2.71
  }
]
